Could you please report measured Kb for the items listed next?
target: human delta opioid receptor (Homo sapiens, UniProt P41143); construct: expressed in transfected cells; host or cells: CHO cells (membrane homogenates); experiment: Inhibition of agonist (DPDPE) stimulated [35S]GTPγS binding, apparent affinity (Ke); assay type: biochemical
Sequence (P41143 whole entry): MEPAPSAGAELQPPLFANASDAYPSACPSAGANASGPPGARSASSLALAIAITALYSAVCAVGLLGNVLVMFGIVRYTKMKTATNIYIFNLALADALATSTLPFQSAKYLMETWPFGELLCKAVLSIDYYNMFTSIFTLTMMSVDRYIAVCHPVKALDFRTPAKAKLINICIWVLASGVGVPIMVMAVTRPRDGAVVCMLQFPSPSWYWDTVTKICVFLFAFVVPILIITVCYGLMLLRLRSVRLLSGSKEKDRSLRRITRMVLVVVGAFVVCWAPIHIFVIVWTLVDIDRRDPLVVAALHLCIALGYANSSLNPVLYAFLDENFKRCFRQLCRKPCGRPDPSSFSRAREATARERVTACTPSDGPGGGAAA
Your answer should be a plain number; it is taken to be in nM.

Request: Give the measured Kb for CC12CCC(NC(=O)C3(c4ccccc4)CCCC3)CC1(c1cccc(O)c1)CCN(CCCc1ccccc1)C2 (stereo not shown)
Result: 6.46

Request: Report Kb for CC12CCCCC1(c1cccc(O)c1)CCN(CCc1ccccc1)C2 (stereo not shown)
Result: 18.9

Request: Kindly indicate its recorded Kb. Item: CC12CCC(NC(=O)CCN3CCCCC3)CC1(c1cccc(O)c1)CCN(CCCc1ccccc1)C2 (stereo not shown)
Result: 12.3

Request: Give a short answer stating reported Kb for CC12CCC(NC(=O)CCN3CCc4ccccc4C3)CC1(c1cccc(O)c1)CCN(CCCc1ccccc1)C2 (stereo not shown) .
Result: 4.56
